- MEASUREMENT PROTOCOL: thallium flux activation in parental CHO cells, counter-screen for KCNQ1 potentiator project (AID 493006);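 on activation: fluorescence ratio of max minus min over baseline after K+ and Tl+ depolarization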
- MEASUREMENT SETUP: parental CHO-K1 cells, FluxOR thallium flux, at 10 µM; active compounds read high
Activity calls are given as the source filed them.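 How the source made its calls: active means duplicate-averaged activation above buffer control mean plus 5 SD of those controls; inactive means the rest.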
PROPERTY MEASURED: activation

• CCOC(=O)c1sc(C)nc1C1CCN(C(=O)OCC)CC1 = inactive
• Cc1cccc(NC(=S)NC(=O)c2ccc(Br)o2)c1C = inactive
• S=c1[nH]cnc2sc(-c3ccccc3)cc12 = 520% (active)
• CN(C(=S)NC(=O)c1ccc(F)cc1)C1CCCCC1 = 154% (active)
• Cc1cc(Nc2cc(N3CCN(C)CC3)nc(Sc3ccc(NC(=O)C4CC4)cc3)n2)n[nH]1 = 140% (active)
• CCOC(=O)Cn1c(=N)n(CCOc2ccc(Br)cc2)c2ccccc21 = inactive
• Cc1cc2n(n1)SC(Nc1ccc(F)c(Cl)c1)N2 (centres undefined) = inactive
• CCOc1ccc(C(=O)C(CCC(CN(C)C)C(=O)c2ccc(OCC)cc2)CN(C)C)cc1 (centres undefined) = inactive
• COc1cccc(OCC(=O)NNC(=O)C(=O)Nc2ccc(OC)cc2OC)c1 = 172% (active)
• C=CCN(CC=C)C(=S)NC(=O)c1ccc(OC)c(Br)c1 = 506% (active)
• Cc1cc(SCNC(=O)c2ccccc2)ncn1 = inactive
• Cc1cccc(NC(=O)c2ccc(COc3ccccc3[N+](=O)[O-])o2)n1 = inactive
• Cc1ccc(S(=O)(=O)N2CCCC(C(=O)Nc3ccc(C(=O)O)cc3)C2)cc1Cl (centres undefined) = inactive
• O=C(NC(=S)NCCc1ccccc1)c1cccc(Cl)c1 = 182% (active)
• Cc1nonc1NC(=O)OC1CCCCC1 = inactive
• O=C(CNc1ccc2c(c1)OCO2)N/N=C\c1cn(Cc2ccccc2)c2ccccc12 = inactive
• Cn1ccnc1SCC(=O)NC1CC1 = inactive
• Cc1nn(-c2ccccc2)c(Cl)c1/C=N\NC(=O)c1cncc(Br)c1 = inactive
• CCOc1ccc2nc(N3C(=O)/C(=C/c4ccccc4)NC3=S)sc2c1 = 442% (active)
• Cc1cc(C)cc(-n2ccnc2SCC(=O)Nc2nccs2)c1 = inactive
• Cc1ccc(C)c(N(CC(=O)NC2CCCC2)C(=O)CCC(=O)Nc2nccs2)c1 = inactive
• Nc1c(-c2ccccc2)cnc2c(-c3ccccc3)cnn12 = inactive
• O=C(CNC(=O)c1sc2ccccc2c1Cl)OCc1ccccc1 = inactive
• C=CCn1sc(=N)c(C#N)c1N = 528% (active)
